test system: HEK-293T; experiment: Incucyte cell viability with HEK293T; format: toxicity, cell-based; settings: human, 24 h, 10 µM, compound concentration 10 uM, replicate number 2, timepoint 24 hours; note: unitless GR value; below 1 slowed growth and below 0 cell loss
Listing: Growth Rate of selected compounds
Readout Type: Growth Rate

{"Compound": "CC[S+]([O-])c1nc(-c2cccc(OCc3ccccc3)c2)cc(C(F)(F)F)n1 (stereo unspecified)", "Result": -0.24}
{"Compound": "OCc1cc(C(O)CNCCCCCCOCCCCc2ccccc2)ccc1O (stereo unspecified)", "Result": 0.71}
{"Compound": "O=C(Nc1cc(C(F)(F)F)ccc1N1CCCCC1)c1ccncc1", "Result": 0.95}
{"Compound": "CCOC(=O)Nc1cc(-c2ccc(C)c(NS(C)(=O)=O)c2)nn2c(C)nnc12", "Result": 0.76}
{"Compound": "CC(C)n1cnc2c(Nc3cccc(Cl)c3)nc(N[C@H]3CCCC[C@@H]3N)nc21", "Result": -0.39}
{"Compound": "C=CCNc1ncnc2ccc(Br)cc12", "Result": 0.96}

---

We begin with a simple list: items and their reported Growth Rate.
system: U2OS; assay: Incucyte cell viability with U2OS; assay type: toxicity, cell-based; details: human, 12 h, 10 µM, compound concentration 10 uM, replicate number 2, timepoint 12 hours; note: unitless GR value; below 1 slowed growth and below 0 cell loss

{"Molecule": "Cc1cc(CN)cc(C)c1-c1ncn(C)c1-c1cncn1C", "Tested System": "U2OS", "Growth Rate": 0.95}
{"Molecule": "CCCCNNC(=O)c1ccc(Br)cc1", "Tested System": "U2OS", "Growth Rate": 0.99}
{"Molecule": "CCOC(=O)N[C@@H]1CC[C@@H]2[C@@H](C1)C[C@H]1C(=O)O[C@H](C)[C@H]1[C@H]2/C=C/c1ccc(-c2cccc(F)c2)cn1 [VORAPAXAR]", "Tested System": "U2OS", "Growth Rate": 0.96}
{"Molecule": "CC(=O)O[C@H]1C(=O)[C@@]2(C)[C@H]([C@H](OC(=O)c3ccccc3)[C@]3(O)C[C@H](OC(=O)[C@H](O)[C@@H](NC(=O)c4ccccc4)c4ccccc4)C(C)=C1C3(C)C)[C@]1(OC(C)=O)CO[C@@H]1C[C@@H]2O [PACLITAXEL]", "Tested System": "U2OS", "Growth Rate": -0.2}
{"Molecule": "N#Cc1cc(F)cc(-c2nc(-c3ccc(F)cn3)no2)c1", "Tested System": "U2OS", "Growth Rate": 0.86}
{"Molecule": "CC[C@@]1(O)C(=O)OCc2c1cc1n(c2=O)Cc2cc3ccccc3nc2-1 [CAMPTOTHECIN]", "Tested System": "U2OS", "Growth Rate": 0.64}
{"Molecule": "CC(C)C[C@H](CO)Nc1nc(S[C@@H](C)c2ccccc2)nc2nc(N)sc12 [AZD-8797]", "Tested System": "U2OS", "Growth Rate": 0.82}
{"Molecule": "CC(C)Cc1ccc([C@@H](C)C(=O)NS(C)(=O)=O)cc1 [REPARIXIN]", "Tested System": "U2OS", "Growth Rate": 0.88}

---

tested on: HEK-293T; assay: Incucyte cell viability with HEK293T; type: toxicity, cell-based; conditions: human, 0 h, 10 µM, compound concentration 10 uM, replicate number 2, timepoint 0 hours; note: unitless GR value; below 1 slowed growth and below 0 cell loss
Returns: string. Value is TRUE if measured Growth Rate is below 0.5, and FALSE if it is greater than or equal to it.

{"Compound": "COCCN1CCC(c2cc(CN(C)C(=O)c3cccc(Oc4ccccc4)c3)ccn2)CC1", "Tested System": "HEK-293T", "Classification": "FALSE"}
{"Compound": "O=c1nc2[nH]c3ccccc3nc-2c(=O)[nH]1", "Tested System": "HEK-293T", "Classification": "FALSE"}
{"Compound": "N=C(N)NCCC[C@H](NC(=O)COCC(c1ccccc1)c1ccccc1)C(=O)O.O=C(O)C(F)(F)F", "Tested System": "HEK-293T", "Classification": "TRUE"}
{"Compound": "CC(C)Cc1ccc([C@@H](C)C(=O)NS(C)(=O)=O)cc1", "Tested System": "HEK-293T", "Classification": "TRUE"}
{"Compound": "CC(C)NCC(O)COc1cccc2[nH]ccc12 (stereo not given)", "Tested System": "HEK-293T", "Classification": "TRUE"}

---

system: U2OS; assay: Incucyte cell viability with U2OS; type: toxicity, cell-based; conditions: human, 24 h, 10 µM, compound concentration 10 uM, replicate number 1, timepoint 24 hours; note: unitless GR value; below 1 slowed growth and below 0 cell loss
Values of Growth Rate greater than or equal to 0.5 map to Met; values below map to Not met.

{"Compound": "Br.Cc1cccc(C2CN(C)CCc3c2cc(O)c(O)c3Cl)c1 (configuration not stated)", "Tested System": "U2OS", "Classification": "Met"}
{"Compound": "COc1cc(OC)cc(C(=O)NNC(=O)Nc2cccc3ccccc23)c1", "Tested System": "U2OS", "Classification": "Met"}
{"Compound": "CO[C@H]1CC[C@@H](C(=O)c2ccc3nc4c(cc3c2)CCCO4)CC1", "Tested System": "U2OS", "Classification": "Met"}
{"Compound": "CC(=O)NCC(=O)N1[C@@H]2CC[C@H]1c1ccc(Nc3ncc(C(F)(F)F)c(NC4CCC4)n3)cc12", "Tested System": "U2OS", "Classification": "Not met"}
{"Compound": "COC(=O)Nc1nc2ccc(C(=O)c3cccs3)cc2[nH]1", "Tested System": "U2OS", "Classification": "Not met"}
{"Compound": "CN(C)CCCOc1ccc(-c2cc(NCCCn3cccn3)nc(S(C)(=O)=O)n2)cc1", "Tested System": "U2OS", "Classification": "Met"}
{"Compound": "CC1=C(C)C(=O)C(C(C)(C)CC(=O)N(CCCCSC[C@H]2O[C@@H](n3cnc4c(N)ncnc43)[C@H](O)[C@@H]2O)Cc2cccc(-c3ccc(Cl)cc3)c2)=C(C)C1=O", "Tested System": "U2OS", "Classification": "Met"}

---

tested on: HEK-293T; experiment: Incucyte cell viability with HEK293T; assay type: toxicity, cell-based; details: human, 18 h, 10 µM, compound concentration 10 uM, replicate number 2, timepoint 18 hours; note: unitless GR value; below 1 slowed growth and below 0 cell loss

{"Compound": "CCc1cc2cc(NS(=O)(=O)c3ccc(C#N)cc3)ccc2n(CC)c1=O", "Growth Rate": 0.84}
{"Compound": "CCC(=O)N1CC[C@H](Nc2ncnc3c2CN(c2cnc(OC)c(C(F)(F)F)c2)CC3)C1 [LENIOLISIB]", "Growth Rate": 0.66}
{"Compound": "CCS(=O)(=O)Nc1ccc(Oc2ccc(F)cc2F)c(-c2cn(C)c(=O)c3[nH]ccc23)c1 [MIVEBRESIB]", "Growth Rate": 0.41}
{"Compound": "Cc1ccccc1-c1cc(N2CCN(C)CC2)ncc1N(C)C(=O)C(C)(C)c1cc(C(F)(F)F)cc(C(F)(F)F)c1 [NETUPITANT]", "Growth Rate": 0.92}

---

test system: U2OS; test: Incucyte cell viability with U2OS; assay type: toxicity, cell-based; conditions: human, 0 h, 10 µM, compound concentration 10 uM, replicate number 1, timepoint 0 hours; note: unitless GR value; below 1 slowed growth and below 0 cell loss
Doc: threshold -0.03 (exclusive). Items with Growth Rate beneath it return 1; others return -1.

{"Molecule": "COCCCN1CCC(NC(=O)c2cc(Cl)c(N)c3c2OCC3)CC1 [PRUCALOPRIDE]", "Classification": -1}
{"Molecule": "CCNC1(C(N)=O)CCN(c2ncnc3c2nc(-c2ccccc2Cl)n3-c2ccc(Cl)cc2)CC1 [OTENABANT]", "Classification": 1}
{"Molecule": "CC(C)N(CCCCOCC(=O)NS(C)(=O)=O)c1cnc(-c2ccccc2)c(-c2ccccc2)n1 [SELEXIPAG]", "Classification": -1}
{"Molecule": "C(#Cc1cccc(CN2CCOCC2)c1)CCN1CCCCC1", "Classification": -1}
{"Molecule": "Cn1cnc(-c2cc3nccc(Oc4ccc(NC(=S)NC(=O)Cc5ccccc5)cc4F)c3s2)c1", "Classification": 1}
{"Molecule": "CC(/C=C1\\SC(=S)N(CCCC(=O)Nc2ccc(C(=O)O)c(O)c2)C1=O)=C\\c1ccccc1", "Classification": -1}
{"Molecule": "O=C(Nc1cc(C(F)(F)F)ccc1N1CCCCC1)c1ccncc1", "Classification": 1}
{"Molecule": "C[C@@H](O[C@H]1OCCN(Cc2n[nH]c(=O)[nH]2)[C@H]1c1ccc(F)cc1)c1cc(C(F)(F)F)cc(C(F)(F)F)c1 [APREPITANT]", "Classification": 1}
{"Molecule": "O=c1nc2[nH]c3ccccc3nc-2c(=O)[nH]1 [ALLOXAZINE]", "Classification": -1}
{"Molecule": "Cc1cnc(CNCC2(F)CCN(C(=O)c3ccc(F)c(Cl)c3)CC2)nc1", "Classification": 1}
{"Molecule": "COc1cc(N2CCN(C)CC2)ccc1Nc1nccc(-c2cn(C)c3cnccc23)n1", "Classification": -1}
{"Molecule": "COc1cccc2c1c(NS(=O)(=O)c1ccc(Cl)s1)nn2Cc1cccc(CNC(=O)C(C)(C)O)c1", "Classification": 1}
{"Molecule": "Cc1ccccc1C#Cc1ccc(CCC(=O)O)cc1", "Classification": -1}
{"Molecule": "O=C1NC(NC23CC4CC(CC(C4)C2)C3)=N/C1=C\\c1ccc2ncsc2c1", "Classification": 1}
{"Molecule": "O=C1NCc2ccc3c(-c4cccc(Cl)c4)c[nH]c3c21", "Classification": 1}
{"Molecule": "Cc1ccc(C(C)(O)c2nc3ccccc3s2)c(C)c1 (stereo not given)", "Classification": 1}
{"Molecule": "COc1c(C)cc(NC(=O)c2nn(Cc3ccc(F)cc3)c3c2CN(C(=O)c2ccc[nH]2)C[C@]3(C)C(N)=O)cc1C", "Classification": 1}
{"Molecule": "CC(C)Oc1ccc(Cc2ccc(NC3=NCCN3)cc2)cc1", "Classification": 1}
{"Molecule": "Cc1ccc(CNc2ncnc3ccc(-c4ccc(CO)o4)cc23)o1", "Classification": 1}
